Assay notes: ACEA_ER_AUC_viability: ACEA Biosciences xCELLigence Real-Time Cell Analysis on Estrogen Receptor Agonism for Viability (AID 2283782);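 further: continuous compound exposure with impedance area under curve over 80 h; hit means loss of impedance signal meaning reduced cell growth or viability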
Records with an inconclusive call do not appear. Activity calls are given as the source filed them. How the source made its calls: active means hit-call score of the fitted dose curve at least 0.9, where 1 is the maximum; inconclusive means response in the unintended direction; inactive means score below 0.9.
Possible outcomes: active, inactive

smiles_data=C=CCc1cc(S(=O)(=O)c2ccc(O)c(CC=C)c2)ccc1O label_value=active
smiles_data=FC(F)(F)COC(OCC(F)(F)F)OCC(F)(F)F label_value=inactive
smiles_data=CCCCCCCCCC label_value=inactive
smiles_data=COc1cc(C(C)C)c2c(c1)S(=O)(=O)N(COc1cc(=O)n3cccc(OCCN4CCCCC4)c3n1)C2=O label_value=active
smiles_data=O=C(Cl)C(F)(F)C(F)(F)C(F)(F)C(=O)Cl label_value=inactive
smiles_data=CCN(CC)C(=S)SSC(=S)N(CC)CC label_value=active
smiles_data=CCOC(N)=O label_value=inactive
